Parameter growth inhibition: see the listing below.
Test system: Plasmodium falciparum NF54
Assay: growth inhibition relative to untreated control; higher = more inhibition
Conditions: 1 µM; minimal medium (MM); 72 h

Molecule	Target Or System	growth inhibition
Cc1cc(C2=NOC(c3cc(Cl)c(F)c(Cl)c3)(C(F)(F)F)C2)ccc1C(=O)NCc1ccc2c(c1)C(C)(C)OB2O (stereo not drawn)	Plasmodium falciparum NF54	< 0%
O=C1O[C@@H](COc2ccon2)CN1c1cc(F)c(C2=CCN(Cc3ccccc3)CC2)c(F)c1	Plasmodium falciparum NF54	< 0%
Cc1nn(Cc2ccccc2)c(Cl)c1C(=O)NC1CCCCCC1	Plasmodium falciparum NF54	< 0%
